Origin of the recorded values: the DeepSol protein solubility set

assay_info: soluble on expression in E. coli; label from the status in PepcDB or PDB records

{"record_sequence": "MSLAQTLGYIYRKRMIDSIEEFSRQIETTYQINKFWDNFEQIREVQNTKIDKVKEKQQKLMERLSSLYDKVEGQKEMGSMNNSNISAAESEWFAEIKRSVIEFNSYVRKASTNHQELEFIKEQQAQIANQKPDISSENGKEWNDLQQLLREGHHHHHH", "soluble on expression in E. coli": "soluble"}
{"record_sequence": "MSLITDGIMHKVREVYQLLRKEPGIIVGVSNRHVHLSREDLETLFGEGYELTPVKELRQPGQYAAKETVTIVGPKGAIENVRVLGPVRKETQVEISRTDAFRLGVRPPVRDSGDLEGTPGIVIIGPNGILVKEKGVIIAKRHIHMHPKDAEYYGVKDKDIVKVIVESGDRRLIFDDVLIRVREDFALEFHVDTDEANAAMLNTGDLVYIVEFEGGSHHHHHH", "soluble on expression in E. coli": "soluble"}
